- EXPERIMENTAL_TARGET: T1, recombinant mouse sclerostin (mouse, UniProt Q99P68 24-211)
- T1 construct: also called ms sclerostin; murine sclerostin
- T1 sequence (looked up): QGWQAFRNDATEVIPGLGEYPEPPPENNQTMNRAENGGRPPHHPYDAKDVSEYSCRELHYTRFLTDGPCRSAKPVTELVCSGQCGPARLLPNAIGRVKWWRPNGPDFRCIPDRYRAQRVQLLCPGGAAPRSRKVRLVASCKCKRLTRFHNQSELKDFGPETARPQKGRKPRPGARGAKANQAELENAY
- PROCEDURE_SUMMARY: SPR
Threshold rule: koff greater than or equal to 0.0001 s⁻¹ is True; below that, False.

BINDER	ASSIGNED_CLASS
AE10-6-AM8 (antibody, V domains shown, converted into IgG) VH: EVQLVQSGAEVKKPGASVKVSCKVSGYTLSELSIHWVRQAPGKGLEWMGGFDPEDGETIYAQKFQGRVTMTEDTSTDTAYMELSSLRSEDTAVYYCATDSAGYWYKFFQHWGQGTLVTVSS VL: QAVVTQEPSLTVSPGGTVTLTCGSSTGAVTIDHYPYWFQQKPGQAPRTLISDTDDKHSWTPARFSGSLLGGKAALTLSGAQPEDEAEYYCLLDYGGSFVFGGGTKLTVL	False
AE10-6-AM7 (antibody, V domains shown, converted into IgG; also called rHC + LC S4 clone 131) VH: EVQLVQSGAEVKKPGASVKVSCKVSGYTLTELSMHWVRQAPGKGLEWMGGFDPEDGETIYAQKFQGRVTMTEDTSTDTAYMELSSLRSEDTAVYYCATDTVGYWEKFFQHWGQGTLVTVSS VL: QAVVTQEPSLTVSPGGTVTLTCGSSTGTVTIDHYPYWFQQKPGQAPRTLISDTDDKHSWTPARFSGSLLGGKAALTLSGAQPEDEAEYYCLLDYGGRFVFGGGTKLTVL	True
AE10-6-AM3 (antibody, V domains shown, converted into IgG) VH: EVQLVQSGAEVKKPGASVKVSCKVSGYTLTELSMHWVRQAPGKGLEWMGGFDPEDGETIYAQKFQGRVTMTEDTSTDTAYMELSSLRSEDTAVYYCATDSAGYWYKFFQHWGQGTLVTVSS VL: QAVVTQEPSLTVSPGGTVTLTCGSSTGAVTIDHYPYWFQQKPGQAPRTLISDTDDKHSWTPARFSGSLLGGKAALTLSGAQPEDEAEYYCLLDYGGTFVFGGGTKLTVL	False
AE10-6-AM5 (antibody, V domains shown, converted into IgG) VH: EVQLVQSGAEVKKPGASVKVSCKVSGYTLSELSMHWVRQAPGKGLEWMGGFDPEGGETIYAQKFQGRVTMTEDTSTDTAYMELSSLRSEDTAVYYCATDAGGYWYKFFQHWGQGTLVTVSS VL: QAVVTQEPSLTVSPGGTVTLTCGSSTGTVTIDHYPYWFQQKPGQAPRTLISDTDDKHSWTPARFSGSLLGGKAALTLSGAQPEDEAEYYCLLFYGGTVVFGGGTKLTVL	True
AE10-6-AM2 (antibody, V domains shown, converted into IgG; also called rHC + LC S4 clone 102) VH: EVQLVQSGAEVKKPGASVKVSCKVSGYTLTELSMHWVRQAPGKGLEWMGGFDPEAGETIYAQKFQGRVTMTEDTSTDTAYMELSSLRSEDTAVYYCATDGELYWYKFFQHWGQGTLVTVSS VL: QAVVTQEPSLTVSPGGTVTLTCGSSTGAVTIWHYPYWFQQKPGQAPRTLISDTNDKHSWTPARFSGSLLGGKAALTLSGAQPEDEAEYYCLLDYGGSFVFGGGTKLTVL	True
AE10-6-AM6 (antibody, V domains shown, converted into IgG; also called rHC + LC S4 clone 119) VH: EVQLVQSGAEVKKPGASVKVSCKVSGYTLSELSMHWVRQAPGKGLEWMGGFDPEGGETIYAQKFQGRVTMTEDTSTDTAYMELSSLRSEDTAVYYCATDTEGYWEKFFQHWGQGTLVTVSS VL: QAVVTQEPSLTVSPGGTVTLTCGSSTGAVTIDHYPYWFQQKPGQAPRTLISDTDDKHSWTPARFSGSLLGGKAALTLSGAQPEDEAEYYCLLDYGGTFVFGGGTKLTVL	True
